Biological target: EgriGOBP2 (Ectropis grisescens)
Sequence (A0A977IVV0 entry or part of it): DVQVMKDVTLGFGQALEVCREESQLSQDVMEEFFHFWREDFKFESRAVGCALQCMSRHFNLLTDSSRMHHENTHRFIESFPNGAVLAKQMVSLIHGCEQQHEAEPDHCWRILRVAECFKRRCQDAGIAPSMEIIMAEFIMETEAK
Assay: Fluorescence competitive binding assay (1-NPN displacement) with recombinant EgriGOBP2
Conditions: displacement of 1-NPN from 2 µM EgriGOBP2/1-NPN mixture, 20 mM Tris-HCl pH 7.4, ligand 0–16 µM; read-out: EgriGOBP2 IC50
# label = met if IC50 < 20 µM else not met

Recorded results for 3 molecules are shown here.
CCCCCCO
not met
CC/C=C\CCOC(=O)CCC [Cis-3-hexenyl tyrate]
not met
CC12CCC(CC1)C(C)(C)O2
met

Incoming: Strictly below 20 µM: is that where IC50 of CC/C=C\CCOC(C)=O [Cis-3-hexenyl acetate] sits?
Outgoing: met

Incoming: Dear reviewer, please state whether CC/C=C\CCOC(=O)CCCCC [Cis-3-hexenyl caproate] has IC50 strictly beneath 20 µM.
Outgoing: met

Incoming: Quick check: IC50 of C=CC(O)CC (stereo not drawn) under 20 µM?
Outgoing: not met

Incoming: Please let me know if CC(=O)OC/C=C(\C)CCC=C(C)C [Geranyl acetate] shows IC50 below 20 µM.
Outgoing: not met

Incoming: Check if IC50 falls below 20 µM for C=C(C)[C@H]1CC=C(C)C(=O)C1 [(S)-(+)-carvone] .
Outgoing: met

Incoming: State whether 20 µM exceeds IC50 recorded for CC(=O)OCc1ccccc1 [Benzyl acetate] .
Outgoing: met

Incoming: Find out if reported IC50 for C=C(C)[C@@H]1CC=C(C)C(=O)C1 [L(-)-carvone] is less than 20 µM
Outgoing: met

Incoming: Is IC50 strictly under 20 µM for the entry C=CC(C)(O)CCC=C(C)CCC=C(C)C (mixture of isomers) ?
Outgoing: met

Source listed as paper PMC12110804.
